- tgt: full length Keap1 protein / full length NRF2 protein (Homo sapiens, UniProt Q14145)
- Construct: full length NRF2 protein and full length Keap1 protein (Keap1 exists a dimer) are used; His
- Sequence (Q14145 whole entry): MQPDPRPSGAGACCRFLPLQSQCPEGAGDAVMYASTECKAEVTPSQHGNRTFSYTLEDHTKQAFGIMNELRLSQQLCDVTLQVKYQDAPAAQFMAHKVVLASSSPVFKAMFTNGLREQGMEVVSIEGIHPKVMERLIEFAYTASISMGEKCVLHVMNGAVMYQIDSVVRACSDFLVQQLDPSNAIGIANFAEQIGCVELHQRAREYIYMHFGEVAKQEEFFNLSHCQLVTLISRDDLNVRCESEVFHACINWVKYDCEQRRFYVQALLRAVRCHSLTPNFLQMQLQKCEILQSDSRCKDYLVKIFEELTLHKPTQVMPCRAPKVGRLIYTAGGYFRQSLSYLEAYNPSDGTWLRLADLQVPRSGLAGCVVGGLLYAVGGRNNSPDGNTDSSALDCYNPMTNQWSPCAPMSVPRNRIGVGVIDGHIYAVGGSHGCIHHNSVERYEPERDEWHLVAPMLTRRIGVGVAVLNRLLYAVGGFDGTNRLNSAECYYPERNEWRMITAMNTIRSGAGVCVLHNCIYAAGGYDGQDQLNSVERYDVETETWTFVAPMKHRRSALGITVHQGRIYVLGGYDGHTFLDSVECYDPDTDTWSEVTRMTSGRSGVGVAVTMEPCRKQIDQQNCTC
- test-protocol: NRF2-Keap1 TR-FRET Low Protein Assay
measure-name: EC50

The molecule CN(Cc1cccc(-n2ncc(C(=O)O)c2[C@@H]2C[C@H]2c2cn(C)nn2)c1)S(=O)(=O)c1cccc2cccnc12 (racemic) [Example 51] showed EC50 equal to 1000 to 10000 nM

The molecule CN(Cc1cccc(-n2ncc(C(=O)O)c2[C@@H]2C[C@H]2c2cn(C)nn2)c1)S(=O)(=O)c1ccccc1OC(F)(F)F (racemic) [Example 46] showed EC50 equal to 1000 to 10000 nM

The molecule CC[C@@H]1CN(Cc2cc(-n3ncc(C(=O)O)c3[C@@H]3C[C@H]3c3cn(C)nn3)ccc2C)Cc2ccccc2O1 [Example 28] showed EC50 equal to 1000 to 10000 nM

The molecule CC[C@@H]1CN(Cc2cccc(-n3ncc(C(=O)O)c3[C@@H]3C[C@H]3c3cnn(C)c3)c2)S(=O)(=O)c2ccccc2O1 [Example 31] showed EC50 equal to 1000 to 10000 nM

The molecule C[C@H]1Cc2ccc(C(F)(F)F)cc2S(=O)(=O)N(Cc2cccc(-n3ncc(C(=O)O)c3[C@@H]3C[C@H]3c3cn(C)nn3)c2)C1 (racemic) [Example 16] showed EC50 equal to 10 to 100 nM

The molecule Cn1cc([C@@H]2C[C@H]2c2c(C(=O)O)cnn2-c2cccc(CN3CC(C)(C)Oc4ccc(F)cc4S3(=O)=O)c2)nn1 (racemic) [Example 5] showed EC50 equal to 10 to 100 nM

---

- tgt: Keap1 (321-609) Kelch domain / TAMRA-labeled NRF2 peptide (ETGE motif) (Homo sapiens, UniProt Q14145)
- Construct: the Kelch domain (321-609) of Keap1 is used
- Sequence (Q14145 321-609): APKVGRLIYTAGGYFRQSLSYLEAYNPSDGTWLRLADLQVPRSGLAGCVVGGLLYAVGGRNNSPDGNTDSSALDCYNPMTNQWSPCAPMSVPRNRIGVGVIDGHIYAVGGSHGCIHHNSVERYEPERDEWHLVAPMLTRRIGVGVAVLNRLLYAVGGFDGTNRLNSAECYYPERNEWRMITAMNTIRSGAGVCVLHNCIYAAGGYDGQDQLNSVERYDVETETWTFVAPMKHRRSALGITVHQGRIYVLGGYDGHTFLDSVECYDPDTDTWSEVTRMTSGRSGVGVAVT
- test-protocol: NRF2-Keap1 FP Assay
- experimental-context: Keap1 (321-609) 20 nM, Tamra labeled peptide 8 nM
pEC50: −log10 of the molar value.
Exercise: for every item that follows, state its recorded pEC50.

The molecule Cn1cc([C@@H]2C[C@H]2c2c(C(=O)O)cnn2-c2cccc(Cn3ccnc3CC3CCCCCC3)c2)nn1 (racemic) showed pEC50 equal to 8.00 to 9.00

The molecule Cn1cc([C@@H]2C[C@H]2c2c(C(=O)O)cnn2-c2cccc(CN3Cc4cc(Br)ccc4OC(C)(C)C3)c2)nn1 (racemic) showed pEC50 equal to 8.00 to 9.00

The molecule Cc1cc([C@@H]2C[C@H]2c2c(C(=O)O)cnn2-c2cccc(CN3C[C@@H](C)Cc4cc(C(F)(F)F)ccc4S3(=O)=O)c2)on1 (racemic) showed pEC50 equal to 6.00 to 7.00

The molecule CCC1c2ccccc2OC(C)(C)CN1Cc1cccc(-n2ncc(C(=O)O)c2[C@@H]2C[C@H]2c2cn(C)nn2)c1 (stereo partly shown) showed pEC50 equal to 5.00 to 6.00

The molecule `CC[C@H]1Cc2ccccc2CN(Cc2cccc(-n3ncc(C(=O)O)c3[C@@H]3C[C@H]3c3cn(C)nn3)c2)C1` showed pEC50 equal to 7.00 to 8.00

The molecule CCCN(Cc1cccc(-n2ncc(C(=O)O)c2[C@@H]2C[C@H]2c2cn(C)nn2)c1)S(=O)(=O)c1ccccc1C (racemic) showed pEC50 equal to 6.00 to 7.00

The molecule `C[C@H]1Cc2ccccc2S(=O)(=O)N(Cc2cccc(-n3ncc(C(=O)O)c3[C@@H]3C[C@H]3c3cn(C)nn3)c2)C1` showed pEC50 equal to 7.00 to 8.00

The molecule COc1cc([N+](=O)[O-])ccc1S(=O)(=O)N(C)Cc1cccc(-n2ncc(C(=O)O)c2[C@@H]2C[C@H]2c2cn(C)nn2)c1 (racemic) showed pEC50 equal to 6.00 to 7.00

The molecule `CC[C@@H]1Cc2ccccc2CN(Cc2cccc(-n3ncc(C(=O)O)c3[C@@H]3C[C@H]3c3cn(C)nn3)c2)C1` showed pEC50 equal to 7.00 to 8.00

The molecule `CC[C@H]1Cc2ccc(Br)cc2S(=O)(=O)N(Cc2cccc(-n3ncc(C(=O)O)c3[C@@H]3C[C@H]3c3cn(C)nn3)c2)C1` showed pEC50 equal to > 9.00

The molecule C[C@@H]1Cc2cc(C(F)(F)F)ccc2S(=O)(=O)N(Cc2cccc(-n3ncc(C(=O)O)c3[C@@H]3C[C@H]3c3cn(C)nn3)c2)C1 (racemic) showed pEC50 equal to 8.00 to 9.00

The molecule C[C@H]1Cc2ccc(C(F)(F)F)cc2S(=O)(=O)N(Cc2cccc(-n3ncc(C(=O)O)c3[C@@H]3C[C@H]3c3cn(C)nn3)c2)C1 (racemic) showed pEC50 equal to 8.00 to 9.00

The molecule COc1ccccc1S(=O)(=O)N(C)Cc1cccc(-n2ncc(C(=O)O)c2[C@@H]2C[C@H]2c2cn(C)nn2)c1 (racemic) showed pEC50 equal to 6.00 to 7.00

---

- tgt: Keap1 (321-609) Kelch domain / TAMRA-labeled NRF2 peptide (ETGE motif) (Homo sapiens, UniProt Q14145)
- Construct: the Kelch domain (321-609) of Keap1 is used
- test-protocol: NRF2-Keap1 FP Assay
- experimental-context: Keap1 (321-609) 20 nM, Tamra labeled peptide 8 nM
pEC50: −log10 of the molar value.
measure-name: pEC50

The compound CCCCCCN(Cc1cccc(-n2ncc(C(=O)O)c2[C@@H]2C[C@H]2c2cn(C)nn2)c1)S(=O)(=O)c1ccccc1C (racemic) showed pEC50 equal to 7.00 to 8.00

The compound `CC[C@H]1Cc2ccc(C(F)(F)F)cc2S(=O)(=O)N(Cc2cccc(-n3ncc(C(=O)O)c3[C@@H]3C[C@H]3c3cn(C)nn3)c2)C1` showed pEC50 equal to > 9.00

The compound Cc1ccccc1S(=O)(=O)N(C)Cc1cccc(-n2ncc(C(=O)O)c2[C@@H]2C[C@H]2c2cn(C)nn2)c1 (racemic) showed pEC50 equal to 6.00 to 7.00

The compound COc1ccc(Cl)cc1S(=O)(=O)N(C)Cc1cccc(-n2ncc(C(=O)O)c2[C@@H]2C[C@H]2c2cn(C)nn2)c1 (racemic) showed pEC50 equal to 6.00 to 7.00

The compound CC[C@@H]1CN(Cc2cccc(-n3ncc(C(=O)O)c3[C@@H]3C[C@H]3c3cn(C)nn3)c2)Cc2ccccc2O1 (racemic) showed pEC50 equal to 6.00 to 7.00

The compound CCOc1ccccc1S(=O)(=O)N(C)Cc1cccc(-n2ncc(C(=O)O)c2[C@@H]2C[C@H]2c2cn(C)nn2)c1 (racemic) showed pEC50 equal to 6.00 to 7.00

---

- Tested on: NQO1 specific enzyme activity in BEAS-2B cells
- test-protocol: BEAS-2B NQO1 MTT Assay
- Format: cell-based
- experimental-context: Homo sapiens; NQO1 specific activity induction, BEAS-2B cells, 48 hours; read-out: EC50
- Excerpt: NAD(P)H:quinone oxidoreductase 1 (NQO1), also called DT diaphorase, is a homodimeric FAD-containing enzyme that catalyzes obligatory NAD(P)H-dependent two-electron reductions of quinones and protects cells against the toxic and neoplastic effects of free radicals and reactive oxygen species arising from one-electron reductions. […] On day one, frozen BEAS-2B cells (ATCC) were thawed in a water bath, counted, and re-suspended at a concentration of 250,000 cells/mL. […]
pEC50: −log10 of the molar value.
measure-name: pEC50

The compound Cn1cc([C@@H]2C[C@H]2c2c(C(=O)O)cnn2-c2cccc(CN3Cc4ccccc4OC(C)(C)C3)c2)nn1 (racemic) showed pEC50 equal to 5.00 to 6.00

The compound `CCCC[C@H]1Cc2ccc(C(F)(F)F)cc2S(=O)(=O)N(Cc2cccc(-n3ncc(C(=O)O)c3[C@@H]3C[C@H]3c3cn(C)nn3)c2)C1` showed pEC50 equal to > 9.00

The compound Cn1cc([C@@H]2C[C@H]2c2c(C(=O)O)cnn2-c2cccc(CN3Cc4ncccc4OC(C)(C)C3)c2)nn1 (racemic) showed pEC50 equal to 6.00 to 7.00

The compound CN(Cc1cccc(-n2ncc(C(=O)O)c2[C@@H]2C[C@H]2c2cn(C)nn2)c1)S(=O)(=O)c1ccccc1Oc1ccccc1 (relative stereo) showed pEC50 equal to 5.00 to 6.00

The compound `CC[C@@H]1CN(Cc2cccc(-n3ncc(C(=O)O)c3[C@@H]3C[C@H]3c3cn(C)nn3)c2)S(=O)(=O)c2ccccc2O1` showed pEC50 equal to 6.00 to 7.00

The compound CN(Cc1cccc(-n2ncc(C(=O)O)c2[C@@H]2C[C@H]2c2cn(C)nn2)c1)S(=O)(=O)c1ccc(-c2ccccc2)cc1 (relative stereo) showed pEC50 equal to 5.00 to 6.00

The compound CC[C@@H]1CN(Cc2cc(-n3ncc(C(=O)O)c3C3C[C@H]3c3cn(C)nn3)ccc2C)S(=O)(=O)c2ccccc2O1 (stereo partly drawn) showed pEC50 equal to 5.00 to 6.00

The compound COc1cc([N+](=O)[O-])ccc1S(=O)(=O)N(C)Cc1cccc(-n2ncc(C(=O)O)c2[C@@H]2C[C@H]2c2cn(C)nn2)c1 (racemic) showed pEC50 equal to 5.00 to 6.00

The compound Cn1cc([C@@H]2C[C@H]2c2c(C(=O)O)cnn2-c2cccc(Cn3ccnc3CN3CCCCC3)c2)nn1 (racemic) showed pEC50 equal to 5.00 to 6.00

The compound `C[C@H]1Cc2cc(C(F)(F)F)ccc2S(=O)(=O)N(Cc2cccc(-n3ncc(C(=O)O)c3[C@@H]3C[C@H]3c3cnn(C)c3)c2)C1` showed pEC50 equal to 5.00 to 6.00

The compound CN(Cc1cccc(-n2ncc(C(=O)O)c2[C@@H]2C[C@H]2c2cn(C)nn2)c1)S(=O)(=O)c1cccc2cccnc12 (racemic) showed pEC50 equal to 6.00 to 7.00

The compound `CC[C@@H]1Cc2ccccc2CN(Cc2cccc(-n3ncc(C(=O)O)c3[C@@H]3C[C@H]3c3cn(C)nn3)c2)C1` showed pEC50 equal to 5.00 to 6.00

The compound COc1ccccc1S(=O)(=O)N(C)Cc1cccc(-n2ncc(C(=O)O)c2[C@@H]2C[C@H]2c2cn(C)nn2)c1 (racemic) showed pEC50 equal to 7.00 to 8.00

The compound COc1ccccc1S(=O)(=O)NCc1cccc(-n2ncc(C(=O)O)c2[C@@H]2C[C@H]2c2cn(C)nn2)c1 (racemic) showed pEC50 equal to 6.00 to 7.00

The compound CN(Cc1cccc(-n2ncc(C(=O)O)c2[C@@H]2C[C@H]2c2cn(C)nn2)c1)S(=O)(=O)c1cccc(Oc2ccccc2)c1 (racemic) showed pEC50 equal to 5.00 to 6.00

The compound Cc1cc([C@@H]2C[C@H]2c2c(C(=O)O)cnn2-c2cccc(CN3C[C@@H](C)Cc4cc(C(F)(F)F)ccc4S3(=O)=O)c2)on1 (racemic) showed pEC50 equal to 6.00 to 7.00

The compound C[C@H]1Cc2ccc(C(F)(F)F)cc2S(=O)(=O)N(Cc2cccc(-n3ncc(C(=O)O)c3[C@@H]3C[C@H]3c3cn(C)nn3)c2)C1 (racemic) showed pEC50 equal to 6.00 to 7.00

The compound C[C@H]1Cc2cc(C(F)(F)F)ccc2S(=O)(=O)N(Cc2cccc(-n3ncc(C(=O)O)c3[C@@H]3C[C@H]3c3cn(C)nn3)c2)C1 (racemic) showed pEC50 equal to 5.00 to 6.00

The compound COc1ccccc1S(=O)(=O)N(Cc1cccc(-n2ncc(C(=O)O)c2[C@@H]2C[C@H]2c2cn(C)nn2)c1)C1CC1 (racemic) showed pEC50 equal to 6.00 to 7.00

The compound Cn1cc([C@@H]2C[C@H]2c2c(C(=O)O)cnn2-c2cccc(Cn3ccnc3CC3CCCCCC3)c2)nn1 (racemic) showed pEC50 equal to 6.00 to 7.00

The compound `C[C@H]1Cc2ccccc2S(=O)(=O)N(Cc2cccc(-n3ncc(C(=O)O)c3[C@@H]3C[C@H]3c3cnn(C)c3)c2)C1` showed pEC50 equal to 5.00 to 6.00

The compound CN(Cc1cccc(-n2ncc(C(=O)O)c2[C@@H]2C[C@H]2c2cn(C)nn2)c1)S(=O)(=O)c1c(Cl)cccc1C(F)(F)F (racemic) showed pEC50 equal to 5.00 to 6.00

The compound COc1ccccc1S(=O)(=O)N(C)C1CCc2ccc(-n3ncc(C(=O)O)c3[C@@H]3C[C@H]3c3cn(C)nn3)cc21 (stereo partly drawn) showed pEC50 equal to 6.00 to 7.00

The compound CN(Cc1cccc(-n2ncc(C(=O)O)c2[C@@H]2C[C@H]2c2cn(C)nn2)c1)S(=O)(=O)c1ccccc1 (racemic) showed pEC50 equal to 5.00 to 6.00
